# Target of assay: Kappa-type opioid receptor (Cavia porcellus, UniProt P41144)
# Sequence (P41144 whole entry): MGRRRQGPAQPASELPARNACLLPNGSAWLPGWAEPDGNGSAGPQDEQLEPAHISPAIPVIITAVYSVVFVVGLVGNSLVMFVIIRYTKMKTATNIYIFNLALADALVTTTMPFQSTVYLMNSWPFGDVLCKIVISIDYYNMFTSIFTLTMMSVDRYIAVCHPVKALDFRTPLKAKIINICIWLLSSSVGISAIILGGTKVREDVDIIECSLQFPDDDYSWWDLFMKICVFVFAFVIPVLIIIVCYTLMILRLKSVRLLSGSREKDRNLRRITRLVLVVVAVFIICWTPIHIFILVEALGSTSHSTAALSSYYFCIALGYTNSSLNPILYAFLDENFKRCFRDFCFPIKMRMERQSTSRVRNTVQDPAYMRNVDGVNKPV
# Measurement protocol: Binding affinity for Opioid receptor kappa 1 by the inhibition of binding of [3H]U-69593 in guinea pig brain membranes.

- Compound: "C=CCN1C[C@H](C)N([C@@H](c2ccc(C(=O)N(C)C)cc2)c2cccc(OC)c2)C[C@H]1C"
  IC50: "> 2.5 µM"
- Compound: "C=CCN1C[C@H](C)N([C@@H](c2ccc(C(=O)NCC)cc2)c2cccc(OC)c2)C[C@H]1C"
  IC50: "1.63 µM"
- Compound: "C=CCN1C[C@H](C)N([C@H](c2ccc(C(=O)N(CC)CCCC)cc2)c2cccc(OC)c2)C[C@H]1C"
  IC50: "> 10 µM"
- Compound: "C=CCN1C[C@H](C)N([C@H](c2ccc(C(=O)N3CCCCCC3)cc2)c2cccc(OC)c2)C[C@H]1C"
  IC50: "> 10 µM"
- Compound: "C=CCN1C[C@H](C)N([C@H](c2ccc(C(=O)NCC)cc2)c2cccc(OC)c2)C[C@H]1C"
  IC50: "0.345 µM"
- Compound: "C=CCN1C[C@H](C)N([C@@H](c2ccc(C(=O)N3CCCC3)cc2)c2cccc(OC)c2)C[C@H]1C"
  IC50: "> 10 µM"
- Compound: "C=CCN1C[C@H](C)N([C@H](c2ccc(C(=O)N3CCCC3)cc2)c2cccc(OC)c2)C[C@H]1C"
  IC50: "> 10 µM"
- Compound: "C=CCN1C[C@H](C)N([C@@H](c2ccc(C(=O)N(C(C)C)C(C)C)cc2)c2cccc(OC)c2)C[C@H]1C"
  IC50: "> 2.5 µM"
- Compound: "C=CCN1C[C@H](C)N([C@H](c2ccc(C(=O)N(CCCC)CCCC)cc2)c2cccc(OC)c2)C[C@H]1C"
  IC50: "> 2.5 µM"
- Compound: "C=CCN1C[C@H](C)N([C@H](c2ccc(C(=O)NC(CC)CC)cc2)c2cccc(OC)c2)C[C@H]1C"
  IC50: "> 2.5 µM"
- Compound: "C=CCN1C[C@H](C)N([C@@H](c2ccc(C(=O)N3CCCCC3)cc2)c2cccc(OC)c2)C[C@H]1C"
  IC50: "> 10 µM"
- Compound: "C=CCN1C[C@H](C)N([C@H](c2ccc(C(=O)NC(C)(C)C)cc2)c2cccc(OC)c2)C[C@H]1C"
  IC50: "> 2.5 µM"
- Compound: "C=CCN1C[C@H](C)N([C@H](c2ccc(C(N)=O)cc2)c2cccc(OC)c2)C[C@H]1C"
  IC50: "> 2.5 µM"
- Compound: "C=CCN1C[C@H](C)N([C@H](c2ccc(C(=O)N3CCCCC3)cc2)c2cccc(OC)c2)C[C@H]1C"
  IC50: "> 10 µM"
- Compound: "C=CCN1C[C@H](C)N([C@@H](c2ccc(C(=O)N3CCCCCC3)cc2)c2cccc(OC)c2)C[C@H]1C"
  IC50: "> 2.5 µM"
- Compound: "C=CCN1C[C@H](C)N([C@H](c2ccc(C(=O)N(C)C)cc2)c2cccc(OC)c2)C[C@H]1C"
  IC50: "> 10 µM"
- Compound: "C=CCN1C[C@H](C)N([C@@H](c2ccc(C(N)=O)cc2)c2cccc(OC)c2)C[C@H]1C"
  IC50: "> 2.5 µM"
- Compound: "C=CCN1C[C@H](C)N([C@@H](c2ccc(C(=O)N(CCC)CCC)cc2)c2cccc(OC)c2)C[C@H]1C"
  IC50: "> 10 µM"
- Compound: "C=CCN1C[C@H](C)N([C@@H](c2ccc(C(=O)N(C)CC)cc2)c2cccc(OC)c2)C[C@H]1C"
  IC50: "> 2.5 µM"
- Compound: "C=CCN1C[C@H](C)N([C@H](c2ccc(C(=O)N(C)CC)cc2)c2cccc(OC)c2)C[C@H]1C"
  IC50: "> 10 µM"
- Compound: "C=CCN1C[C@H](C)N([C@H](c2ccc(C(=O)N(CCC)CCC)cc2)c2cccc(OC)c2)C[C@H]1C"
  IC50: "> 10 µM"
- Compound: "C=CCN1C[C@H](C)N([C@@H](c2ccc(C(=O)N(CC)CCCC)cc2)c2cccc(OC)c2)C[C@H]1C"
  IC50: "> 10 µM"
- Compound: "C=CCN1C[C@H](C)N([C@@H](c2ccc(C(=O)N(CCCC)CCCC)cc2)c2cccc(OC)c2)C[C@H]1C"
  IC50: "> 2.5 µM"
- Compound: "C=CCN1C[C@H](C)N([C@H](c2ccc(C(=O)N(C(C)C)C(C)C)cc2)c2cccc(OC)c2)C[C@H]1C"
  IC50: "> 2.5 µM"
- Compound: "C=CCN1C[C@H](C)N([C@H](c2ccc(C(=O)N(CC)CC)cc2)c2cccc(OC)c2)C[C@H]1C [SNC-80]"
  IC50: "7.07 µM"
